All figures here come from patent US6444703B1.

# assay_name: Solubility measurement (excess added to solvent, shaken one hour, supernatant assayed)
# Format: physicochemical
# assay_conditions: thermodynamic from solid; 25° C., water; read-out: Solubility in water
parameter_measured: solubility at 1 h (µg/mL)
Numbers only, in µg/mL.

// sample Cc1ccc(COC(=O)c2ccc(-c3ccc(OC(=O)[C@H]4CC[C@H](CNC(=N)N)CC4)cc3)cc2)cc1.Cl , its solubility at 1 h was 24

----------
# assay_name: Solubility measurement (excess added to solvent, shaken one hour, supernatant assayed)
# Format: physicochemical
# assay_conditions: 0.05M phosphate buffer, aqueous buffer, thermodynamic from solid; 25° C., pH 6.5; read-out: Solubility in 0.05M phosphate buffer (pH 6.5)
parameter_measured: solubility at 1 h

// sample Cc1ccc(COC(=O)c2ccc(-c3ccc(OC(=O)[C@H]4CC[C@H](CNC(=N)N)CC4)cc3)cc2)cc1.Cl , its solubility at 1 h was < 0.1 µg/mL

----------
# assay_name: Solubility measurement (excess added to solvent, shaken one hour, supernatant assayed)
# Type: physicochemical
# assay_conditions: 0.1M acetate buffer, aqueous buffer, thermodynamic from solid; 25° C., pH 4.0; read-out: Solubility in 0.1M acetate buffer (pH 4.0)
parameter_measured: solubility at 1 h

// sample Cc1ccc(COC(=O)c2ccc(-c3ccc(OC(=O)[C@H]4CC[C@H](CNC(=N)N)CC4)cc3)cc2)cc1.Cl , its solubility at 1 h was < 0.1 µg/mL
